- Test Target: T1, CMG2 38-218 (Homo sapiens), P58335
- T1 chain: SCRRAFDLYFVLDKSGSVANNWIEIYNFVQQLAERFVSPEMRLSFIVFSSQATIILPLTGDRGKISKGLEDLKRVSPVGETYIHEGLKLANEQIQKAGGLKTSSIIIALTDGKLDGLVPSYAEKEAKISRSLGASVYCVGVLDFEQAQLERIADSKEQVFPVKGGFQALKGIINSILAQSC
- Assay Summary: sandwich ELISA (competition with His6-PA 596-735)
- Test Parameters: modification not given
Assay Endpoint: IC50 (µM)
Answers are plain numbers, in µM.

Entry CLRFT has what IC50?
71.3

Entry source: paper PMC5465072
